Where do these numbers come from? They come from patent US10968177B2.

MEASURED_TARGET: RORγ (Homo sapiens)
Construct: Jurkat pEx/Gal/hRORγ CLBD/HYG pG5luc/blast
Sequence (P51449 269-508 limits assumed): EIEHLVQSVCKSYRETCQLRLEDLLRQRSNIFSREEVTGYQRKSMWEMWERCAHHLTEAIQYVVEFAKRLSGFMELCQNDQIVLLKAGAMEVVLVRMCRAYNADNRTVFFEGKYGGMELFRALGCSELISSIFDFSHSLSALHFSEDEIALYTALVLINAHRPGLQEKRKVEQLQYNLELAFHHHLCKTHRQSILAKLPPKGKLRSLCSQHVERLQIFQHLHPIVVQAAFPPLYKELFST
TEST_METHOD_NOTES: RORγ Gal4 reporter assay (Gal4-luciferase reporter in Jurkat cells)
PROTOCOL_CONDITIONS: inhibition of luminescence (inverse agonist activity); Jurkat cells stably over-expressing hRORγ; incubated overnight
RECORDED_METRIC: IC50 (nM)
Write the number in nM without appending the unit.

Please review the following examples before continuing.
# COMPOUND, UNIT_LABEL, IC50
data = [
    ("CC(=O)N=S1(=O)CCC(C(=O)N2CC[C@@]3(S(=O)(=O)c4ccc(F)cc4)c4ccc(C(F)(C(F)(F)F)C(F)(F)F)cc4CC[C@@H]23)CC1 (single isomer, unassigned) [Example 16]", "nM", 77),
    ("CN=S1(=O)CCC(C(=O)N2CC[C@@]3(S(=O)(=O)c4ccc(F)cc4)c4ccc(C(F)(C(F)(F)F)C(F)(F)F)cc4CC[C@@H]23)CC1 (single isomer, unassigned) [Example 13]", "nM", 26),
    ("N=S1(=O)CCC(C(=O)N2CC[C@@]3(S(=O)(=O)c4ccc(F)cc4)c4ccc(C(F)(C(F)(F)F)C(F)(F)F)cc4CC[C@@H]23)CC1 (single isomer, unassigned) [Example 11]", "nM", 39),
    ("CN=S1(=O)CCC(C(=O)N2CC[C@@]3(S(=O)(=O)c4ccc(F)cc4)c4ccc(C(F)(C(F)(F)F)C(F)(F)F)cc4CC[C@@H]23)CC1 (single isomer, unassigned) [Example 14]", "nM", 40),
]

Let's switch to this compound now.
Query string: Can you look up IC50 on RORγ (Homo sapiens) for N=S1(=O)CCC(C(=O)N2CCC3(S(=O)(=O)c4ccccc4)c4ccc(C(F)(C(F)(F)F)C(F)(F)F)cc4CCC23)CC1 (single isomer, unassigned) ?
Result string: 56

###

MEASURED_TARGET: RORγ (Homo sapiens)
Construct: Jurkat pEx/Gal/hRORγ CLBD/HYG pG5luc/blast
TEST_METHOD_NOTES: RORγ Gal4 reporter assay (Gal4-luciferase reporter in Jurkat cells)
PROTOCOL_CONDITIONS: inhibition of luminescence (inverse agonist activity); Jurkat cells stably over-expressing hRORγ; incubated overnight
Listed here: items and their measured pIC50.
Interpret pIC50 as the negative base-10 log of the concentration measured in mol/L.

# COMPOUND, pIC50
measured = [
    ("N=S1(=O)CCC(C(=O)N2CCC3(S(=O)(=O)c4ccc(F)cc4)c4ccc(C(F)(C(F)(F)F)C(F)(F)F)cc4OCC23)CC1 (single isomer, unassigned)", 6.61),
    ("CN1CC2N(C(=O)C3CCS(=N)(=O)CC3)CCC2(S(=O)(=O)c2ccc(F)cc2)c2ccc(C(F)(C(F)(F)F)C(F)(F)F)cc21 (centres unmarked)", 7.68),
    ("N=S1(=O)CCC(C(=O)N2CCC3(S(=O)(=O)c4cccc(Cl)c4)c4ccc(C(F)(C(F)(F)F)C(F)(F)F)cc4CCC23)CC1 (single isomer, unassigned)", 7.24),
    ("CC(=O)N=S1(=O)CCC(C(=O)N2CC[C@@]3(S(=O)(=O)c4ccc(F)cc4)c4ccc(C(F)(C(F)(F)F)C(F)(F)F)cc4CC[C@@H]23)CC1 (single isomer, unassigned) [Example 15]", 7.31),
]

Let's switch to this compound now.
Query string: Would you mind telling me what pIC50 value was observed for N=S1(=O)CCC(C(=O)N2CC[C@@]3(S(=O)(=O)c4ccc(F)cc4)c4ccc(C(F)(C(F)(F)F)C(F)(F)F)cc4CC[C@@H]23)CC1 (mixture of isomers) [Example 7] ?
Result string: 7.55
